FYI, the data here is from patent US20230234938A1.

measurement.kind: melting point

Prompt line: So what does the record say about melting point for CC1(O)C(=O)N(c2cc(Cc3n[nH]c(=O)c4cc(F)ccc34)ccn2)c2ccccc21 (single isomer, unassigned; (+)) [Example 23] ?
Response line: 167 to 170 °C

Prompt line: Reported melting point for O=C1N(c2cncc(Cc3n[nH]c(=O)c4ccccc34)c2)c2ccccc2C1(O)C(F)(F)F (single isomer, unassigned; (-)) [Example 27] : what is it?
Response line: 210 to 214 °C

Prompt line: Quick one: melting point for O=C1N(c2cncc(Cc3n[nH]c(=O)c4ccccc34)c2)c2ccccc2C12CC2 [Example 38] ?
Response line: 219 to 222 °C

###

# System: PAR in UWB 1.289 cells
# test: PAR inhibition in UWB 1.289 cells (western blot)
# Type: cell-based, human
# run.parameters: Homo sapiens, UWB1289, read-out: PAR % inhibition in UWB 1.289 @ 10 nM; UWB 1.289 cells, 10 nM, 24 hours, western blot relative to DMSO
I'd be grateful if you could share measured inhibition at 0.01 µM for these entries.

Prompt line: Entry CC1(O)C(=O)N(c2cncc(Cc3n[nH]c(=O)c4ccccc34)c2)c2ccccc21 (stereo not shown) , system PAR in UWB 1.289 cells: what inhibition at 0.01 µM was measured?
Response line: 50 to 75%

Prompt line: Missing value: inhibition at 0.01 µM, PAR in UWB 1.289 cells, entry CC1(O)C(=O)N(c2cc(Cc3n[nH]c(=O)c4cc(F)ccc34)ccn2)c2ccc(F)cc21 (stereo not shown) . Fill in?
Response line: 25 to 50%

Prompt line: Write down the reported inhibition at 0.01 µM of O=C1N(c2cncc(Cc3n[nH]c(=O)c4ccccc34)c2)c2ccccc2C1(O)C(F)(F)F (stereo not shown) , test system: PAR in UWB 1.289 cells.
Response line: 25 to 50%

Prompt line: Write down the reported inhibition at 0.01 µM of CC1(O)C(=O)N(c2cc(Cc3n[nH]c(=O)c4cc(F)ccc34)ccn2)c2ccccc21 (stereo not shown) , test system: PAR in UWB 1.289 cells.
Response line: 25 to 50%
